- Test system: ACHN renal
- experimental details: NCI tumour cell line growth inhibition, 384-well format
measured endpoint: GI50

For orientation, consider the following solved cases.
# test smiles, GI50
records = [
    ("COc1ncc(-c2nc3c(n2C(C)C)[C@H](c2ccc(Cl)cc2)N(c2cc(Cl)cn(C)c2=O)C3=O)c(OC)n1", "13.1 µM"),
    ("O=C(Oc1ccc([N+](=O)[O-])cc1)N1CCN(Cc2cccc(Oc3ccccc3)c2)CC1", "> 100 µM"),
    ("O=C(Nc1cnn2ccc(N3CCC[C@@H]3c3cc(F)ccc3F)nc12)N1CC[C@H](O)C1", "> 100 µM"),
]

// below: GI50 requested for another compound
stdin: Which measured GI50 value corresponds to Nc1ccn([C@H]2C[C@@H](O)[C@@H](CO)S2)c(=O)n1 ?
stdout: > 100 µM

* * *

- System: SF-295 CNS
- experimental details: NCI tumour cell line growth inhibition, 384-well format
Overview of reported TGI across a group of compounds:

The examples below pair each entry with its known result.
# test smiles, result
data = [
    ("Nc1ccn([C@H]2C[C@@H](O)[C@@H](CO)S2)c(=O)n1", "> 100 µM"),
    ("O=C(Nc1cnn2ccc(N3CCC[C@@H]3c3cc(F)ccc3F)nc12)N1CC[C@H](O)C1", "> 100 µM"),
    ("O=C(Oc1ccc([N+](=O)[O-])cc1)N1CCN(Cc2cccc(Oc3ccccc3)c2)CC1", "> 100 µM"),
]

stdin: Any idea what its TGI is? The compound is CN(C)CCNC(=O)c1cccc2cc3ccccc3nc12
stdout: 2.38 µM

* * *

Listing of recorded TGI by entry.
- Tested on: SW-620 colon
- experimental details: NCI tumour cell line growth inhibition, 384-well format
Response body: numeric value in µM, unit text excluded.

# test smiles, quantity unit, TGI
measured = [
    ("COc1ncc(-c2nc3c(n2C(C)C)[C@H](c2ccc(Cl)cc2)N(c2cc(Cl)cn(C)c2=O)C3=O)c(OC)n1", "µM", 97.8),
]

Lab note: next compound to report on.
stdin: Returns the measured TGI for the input compound. Input: CN(C)CCNC(=O)c1cccc2cc3ccccc3nc12
stdout: 1.99

* * *

- System: NCI-H460 NSCLC
Parameter call: string, one of active, inactive

# test smiles, classification
data = [
    ("COc1ncc(-c2nc3c(n2C(C)C)[C@H](c2ccc(Cl)cc2)N(c2cc(Cl)cn(C)c2=O)C3=O)c(OC)n1", "inactive"),
]

stdin: Returns: the outcome recorded for O=C(Nc1cnn2ccc(N3CCC[C@@H]3c3cc(F)ccc3F)nc12)N1CC[C@H](O)C1 in this assay.
stdout: inactive

stdin: Could you please tell me the result logged for Nc1ccn([C@H]2C[C@@H](O)[C@@H](CO)S2)c(=O)n1 in this assay?
stdout: active

stdin: Fill in: this test's call for CN(C)CCNC(=O)c1cccc2cc3ccccc3nc12 is ___
stdout: active

* * *

- Test system: COLO 205 colon
- experimental details: NCI tumour cell line growth inhibition, 384-well format; in the data active means GI50 below about 0.43 µM; inactive means the rest
# valid calls are active, inactive; nothing else

# test smiles, classification
measured = [
    ("Nc1ccn([C@H]2C[C@@H](O)[C@@H](CO)S2)c(=O)n1", "inactive"),
    ("CN(C)CCNC(=O)c1cccc2cc3ccccc3nc12", "active"),
    ("O=C(Nc1cnn2ccc(N3CCC[C@@H]3c3cc(F)ccc3F)nc12)N1CC[C@H](O)C1", "inactive"),
]

Then this molecule:
stdin: Look up the recorded call for COc1ncc(-c2nc3c(n2C(C)C)[C@H](c2ccc(Cl)cc2)N(c2cc(Cl)cn(C)c2=O)C3=O)c(OC)n1 in this test.
stdout: inactive
